Biological target: T1, BCMA-Fc, a recombinant protein where the extracellular domain of human BCMA protein is linked to human Fc (human, UniProt Q02223 1-54)
T1 construct: extracellular domain; Negative control in panning and ELISA; also called negative control-Fc
T1 sequence (looked up): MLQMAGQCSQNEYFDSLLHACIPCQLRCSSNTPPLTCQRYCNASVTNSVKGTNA
Assay: ELISA, wells coated with BCMA-Fc (negative control), monoclonal scFv supernatant, anti-HA HRP detection, OD (450-650nm)
observation_type: binding result

Could you tell me which binding result is on file for anti-ROR1 monoclonal phage antibody BA6 (soluble scFv) (scFv, V domains shown, Tested as soluble scFv in culture supernatant, detected through an HA tag) VH: EVQLLESGGGLVQPGGSLRLSCAASGFTFSNYDMSWVRQAPGKGLEWVSAIYHSGSSKYYADSVKGRFTISRDNSKNTLYLQMNSLRAEDTAVYYCARGGNGAWDTGFDYWGQGTLVTVSS VL: QSVLTQPPSASGTPGQRVTISCSGSSSNIGSNDVSWYQQLPGTAPKLLIYYDNNRPSGVPDRFSGSKSGTSASLAISGLRSEDEADYYCGAWDDSLSGYVFGGGTKLTVLG ?
no binding

Fill in: binding result of anti-ROR1 monoclonal phage antibody A2F2 (soluble scFv) (scFv, V domains shown, Tested as soluble scFv in culture supernatant, detected through an HA tag) VH: EVQLLESGGGLVQPGGSLRLSCAASGFTFSDYYMSWVRQAPGKGLEWVSSISPDGSNTYYADSVKGRFTISRDNSKNTLYLQMNSLRAEDTAVYYCAKNLRAFDYWGQGTLVTVSS VL: QSVLTQPPPASGTPGQRVTISCSGSSSNIGSNTVYWYQQLPGTAPKLLIYANSQRPSGVPDRFSGSKSGTSASLAISGLRSEDEADYYCGSWDYSLSGYVFGGGTKLTVLG is ___
no binding
